System: SW684
Assay: standardised AUC of viability dose-response curve (72 h) (fraction (0-1)); higher = less growth inhibition (more resistant)
Examples of compounds with documented standardised AUC follow.
recorded.metric: standardised AUC

>  <compound>
Cc1c2oc3c(C)ccc(C(=O)N[C@@H]4C(=O)N[C@H](C(C)C)C(=O)N5CCC[C@H]5C(=O)N(C)CC(=O)N(C)[C@@H](C(C)C)C(=O)O[C@@H]4C)c3nc-2c(C(=O)N[C@@H]2C(=O)N[C@H](C(C)C)C(=O)N3CCC[C@H]3C(=O)N(C)CC(=O)N(C)[C@@H](C(C)C)C(=O)O[C@@H]2C)c(N)c1=O [DACTINOMYCIN]

>  <recorded.value>
0.778

$$$$
>  <compound>
Cc1cc(F)c(C(=O)Nc2cccc(-c3nncn3C(C)C)n2)cc1-n1cnc(C2CC2)c1 [SELONSERTIB]

>  <recorded.value>
0.981

$$$$
>  <compound>
C[C@@H]1CN(C(=O)c2ccc(NC(=O)c3cc(O[C@H](C)c4c(Cl)ccc(F)c4Cl)c(N)nn3)cc2)C[C@H](C)N1 [ENSARTINIB]

>  <recorded.value>
0.936

$$$$
>  <compound>
CCc1nc(C(N)=O)c(Nc2ccc(N3CCC(N4CCN(C)CC4)CC3)c(OC)c2)nc1NC1CCOCC1 [GILTERITINIB]

>  <recorded.value>
0.791

$$$$
